Test System: human CMKLR1 (Homo sapiens, UniProt Q99788)
Construct: host or cells: HEK293A (Invitrogen), stably expressing human Gα15
Sequence (Q99788 1-373): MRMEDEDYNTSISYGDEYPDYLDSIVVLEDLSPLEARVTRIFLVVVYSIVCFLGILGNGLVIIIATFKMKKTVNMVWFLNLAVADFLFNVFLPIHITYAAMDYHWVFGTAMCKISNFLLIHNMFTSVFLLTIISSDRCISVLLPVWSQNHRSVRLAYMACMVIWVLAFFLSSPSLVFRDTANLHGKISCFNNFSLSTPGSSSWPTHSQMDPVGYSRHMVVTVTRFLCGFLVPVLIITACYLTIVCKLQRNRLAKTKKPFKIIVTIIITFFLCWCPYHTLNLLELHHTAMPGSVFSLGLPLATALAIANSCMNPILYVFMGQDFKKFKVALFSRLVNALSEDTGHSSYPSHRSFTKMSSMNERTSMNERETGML
Method Summary: Ca2+ mobilization (CellLux imaging) agonist assay in HEK293A cells expressing CMKLR1 and Gα15
Assay type: cell-based
Condition Context: Ca2+ mobilization, CMKLR1; decimal comma; NR where no EC50 is given; read-out: EC50
Square brackets hold non-standard residues; d marks the D form. Peptide text beside a SMILES is read from it.
Measured Metric: pEC50
Scale: negative log10 of molar concentration, which is what pEC50 denotes.

Reference set (2 entries):
[
  {
    "Compound": "CC(C)C[C@H](NC(=O)[C@@H](N)Cc1ccc(O)cc1)C(=O)N1CCC[C@H]1C(=O)NCC(=O)N[C@@H](CCC(N)=O)C(=O)N[C@@H](Cc1ccc(O)cc1)C(=O)N[C@H](Cc1c[nH]c2ccccc12)C(=O)N1CCC[C@H]1C(=O)N[C@H](Cc1ccccc1)C(=O)O [compound 126] (H-YLPGQY[dW]P[dF]-OH; N-terminus assumed)",
    "Obs Value": 7.68
  },
  {
    "Compound": "C[C@H](NC(=O)[C@H](CO)NC(=O)[C@H](Cc1ccccc1)NC(=O)[C@H](C)NC(=O)[C@H](Cc1ccccc1)NC(=O)[C@H](CCC(N)=O)NC(=O)[C@@H](N)Cc1ccccc1)C(=O)N[C@@H](Cc1ccccc1)C(=O)N[C@H](CO)C(=O)O [compound 103] (H-FQFAFSAF[dS]-OH; N-terminus assumed)",
    "Obs Value": 6.71
  }
]

Lab note: next compound to report on.
Q: Can you share its pEC50? I mean this compound: CC(C)C[C@H](NC(=O)CNC(=O)[C@H](Cc1ccc(O)cc1)NC(=O)[C@H](CC(C)C)NC(=O)[C@H](N)Cc1ccccc1)C(=O)N[C@@H](Cc1ccc(O)cc1)C(=O)N[C@@H](C)C(=O)N[C@@H](Cc1ccccc1)C(=O)N1CCC[C@@H]1C(=O)O [compound 108] (H-[dF]LYGLYAF[dP]-OH; N-terminus assumed)
Ans: 5.92
